Each entry below carries its reported IC50.
- System: KRAS G13D binding to BRAF RBD (Homo sapiens (Human), UniProt P01116+P62937, G13D)
- Sequence (P01116 other isoform, or with tags, fused parts or gaps G13D): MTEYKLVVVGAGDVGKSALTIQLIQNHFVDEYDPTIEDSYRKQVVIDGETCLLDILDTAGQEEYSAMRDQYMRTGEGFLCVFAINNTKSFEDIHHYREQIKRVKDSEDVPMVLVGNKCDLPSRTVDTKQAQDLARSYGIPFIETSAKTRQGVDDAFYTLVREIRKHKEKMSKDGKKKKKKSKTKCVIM
- Sequence (P62937 whole entry): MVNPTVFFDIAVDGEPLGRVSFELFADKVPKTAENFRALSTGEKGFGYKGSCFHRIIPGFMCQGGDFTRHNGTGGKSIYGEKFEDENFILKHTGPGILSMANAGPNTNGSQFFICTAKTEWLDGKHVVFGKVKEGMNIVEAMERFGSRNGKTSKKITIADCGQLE
- Experiment: Ras-Raf disruption/FRET/MOA assay, KRAS G13D
- Text: Note—The following protocol describes a procedure for monitoring disruption of K-Ras G12C(GMP-PNP) binding to BRAF^RBD by a compound of the invention. This protocol may also be executed substituting other Ras proteins or nucleotides. […]

Observe how each entry below is paired with its result.
Data point: CCn1c(-c2cccnc2[C@H](C)OC)c2c3cc(ccc31)-c1cc(O)cc(c1)C[C@H](NC(=O)[C@H](C(C)C)N(C)C(=O)[C@H]1CCC(C(=O)C#CCOC)C1)C(=O)N1CCC[C@H](N1)C(=O)OCC(C)(C)C2 (stereo partly shown) ; IC50 = 0.1 to 1 µM

For CCn1c(-c2cccnc2[C@H](C)OC)c2c3cc(ccc31)-c1cnc(o1)C[C@H](NC(=O)[C@@H](COC1CN(C(=O)C#CC(C)(C)N(C)C)C1)C(C)C)C(=O)N1CCC[C@H](N1)C(=O)OCCC2 (atropisomer, axis not shown) the molecule record lists IC50 as > 10 µM

The recorded IC50 for entry CCn1c(-c2cccnc2[C@H](C)OC)c2c3cc(ccc31)-c1cc(C(F)F)cc(n1)C[C@H](NC(=O)[C@H](C1CCCC1)N(C)C(=O)[C@H]1CCN(C(=O)C#CC(C)(C)N3CCC3)C1)C(=O)N1CCC[C@H](N1)C(=O)OCC(C)(C)C2 equals 1 to 10 µM

Further cases:
Sure, the documented IC50 for CCn1c(-c2cccnc2[C@H](C)OC)c2c3cc(ccc31)-c1csc(n1)C[C@H](NC(=O)[C@H](C(C)C)N1CC[C@]3(CCN(C(=O)C#CC(C)(C)N(C)C)C3)C1=O)C(=O)N1CCC[C@H](N1)C(=O)OCC(C)(C)C2 (single isomer, unassigned) is > 10 µM
